Origin of values: PubChem BioAssay AID179

Tested on: CEM cells HIV-1 protection, formazan growth assay
PROCEDURE TEXT: NCI AIDS Antiviral Assay;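 active means compounds giving half or more protection of infected cells from virus-caused growth loss, again on retest; inactive means the rest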
Your answer must be one of the following: active, inactive

// below: answered compounds
>  <COMPOUND>
CC1(C)O[C@@H]2[C@@H]3OC(=O)C[C@@H]3[C@@H](COCc3ccccc3)[C@@H]2O1

>  <CLASS LABEL>
inactive

$$$$
>  <COMPOUND>
Cc1cccc(C)c1NC(=S)/N=C/C1=C(O)c2ccccc2C1=O

>  <CLASS LABEL>
inactive

$$$$
>  <COMPOUND>
O=C(CCl)N1CCN(c2ccccc2)CC1

>  <CLASS LABEL>
inactive

$$$$
>  <COMPOUND>
O=C1C2C(C(=O)N1O)N(Cc1ccccc1)C(=O)N2Cc1ccccc1 (stereo unspecified)

>  <CLASS LABEL>
inactive

$$$$
>  <COMPOUND>
CC(=O)Oc1ccc2c(c1)Cc1cc(N=[N+]([O-])c3ccc4c(c3)Cc3cc(OC(C)=O)ccc3-4)ccc1-2

>  <CLASS LABEL>
inactive

$$$$

## Task Test call for this compound, please: O=[N+]([O-])c1ccc(C2OC3CC4C5CCCC5C3C4O2)cc1 (stereo unspecified)
## Result inactive

## Task Recorded test outcome, item CC1CC/C(=C\c2ccc(F)cc2)C(=O)/C1=C/c1ccc(F)cc1 (stereo unspecified)
## Result inactive

## Task Could you check what this test reported for Cc1cn(C2CC(N=[N+]=[N-])C(COC(=O)CCCCCCCCCCCF)O2)c(=O)[nH]c1=O (stereo unspecified) ?
## Result active

## Task What outcome does the record of this test show for CCCCCCCCCCCC1=C(NCCN)C(=O)C=C(NCCN)C1=O ?
## Result inactive

## Task In this assay, the call recorded for COC(=O)c1cc(C(=CC(=O)N[C@H]2CC[C@]3(C)C4CC[C@]5(C)[C@@H](C(C)CCCC(C)C)CC[C@H]5C4CC[C@H]3C2)c2cc(Cl)c(OC)c(C(=O)OC)c2)cc(Cl)c1OC (stereo partly specified) was what?
## Result inactive

## Task // param item: CCC(=O)N1C(=O)C(C)C23c4cccc([N+](=O)[O-])c4C(=O)N2CCCN13 (stereo unspecified) ; yields the recorded call
## Result inactive

## Task Record lookup: outcome of this test for C=C1CC2CC(=O)C(O)C(C1)C2 (stereo unspecified) ?
## Result inactive

## Task Name the outcome recorded for O=C1CC2(CCc3ccccc32)C(=O)N1CN1CCN(c2ccccn2)CC1 (stereo unspecified) in the assay.
## Result inactive

## Task Look up the recorded call for O=C1N2CCN=C2c2ccccc2C1(O)c1ccccc1 (stereo unspecified) in this test.
## Result inactive

## Task What call does the record list for CCN(CC)c1ncnc2c1ncn2CCNC(CO)(CO)CO ?
## Result inactive

## Task Look up the recorded call for Cc1cc[n+]2c(c1)-c1cc(C)cc[n+]1CC2 in this test.
## Result inactive

## Task Recorded test call requested for C=CCCCCCCCCC(=O)NCCN1CCOCC1
## Result inactive

## Task How was Cc1ccc(/C=C/C(=O)C(C)C)cc1 classified in this test?
## Result inactive

## Task Lab log entry: COC1/C=C/OC2(C)Oc3c(C)c(O)c4c(O)c(c(C=NN5CCCCCCCCCC5)c(O)c4c3C2=O)NC(=O)/C(C)=C/C=C/C(C)C(O)C(C)C(O)C(C)C(OC(C)=O)C1C (stereo unspecified) — outcome as called in the assay?
## Result inactive

## Task For COC(=O)C([C@H](NC1(c2ccccc2)c2ccccc2-c2ccccc21)C(=O)OC)N(NC(=O)OCc1ccccc1)C(=O)OCc1ccccc1 (mixture of isomers) , what call appears in the results of this test?
## Result inactive

## Task Query: recorded result category for O=C1CC(=O)NC(=NN2C(=O)CSC2C(=O)c2ccco2)N1 (stereo unspecified) in this test
## Result active

## Task What call does the record list for COC1/C=C/OC2(C)Oc3c(C)c(O)c4c(O)c(c(/C=N/N5C(C)CN(Cc6ccc(C(C)(C)C)cc6)CC5C)c(O)c4c3C2=O)NC(=O)/C(C)=C\C=C\C(C)C(O)C(C)C(O)C(C)C(OC(C)=O)C1C (stereo unspecified) ?
## Result inactive

## Task Please let me know the test result on file for CC1CC(=O)Nc2ccc(N=NN(C)C)cc2N1C=O (stereo unspecified) .
## Result inactive

## Task Which outcome was entered for the compound COCCOCCOCCC(=O)NC1CC2CCC1(C)C2(C)C (stereo unspecified) in this test?
## Result inactive

## Task For COc1ccc(/C=C2\N=C(N3CCOCC3)NC2=O)cc1 , what call appears in the results of this test?
## Result inactive

## Task Check the results log: what was the call for COc1cc(C2SC(N)=Nc3c2c(C)nn3C(=O)c2ccccc2O)cc(OC)c1OC (stereo unspecified) ?
## Result inactive
